- System: NCI-H23
- measurement-description: NCI tumour cell line growth inhibition, 48 h
Activity calls are given as the source filed them. Cut-off read from the data, not from the text of the source: active = GI50 up to about 1.1 µM and inactive = higher.
Answer with one of the outcomes active, inactive

Use the examples below as a reference point.
{"molecule": "COc1ccc2c3c([nH]c2c1[N+](=O)[O-])C(C)=NCC3", "target-or-test-system": "NCI-H23", "label": "inactive"}
{"molecule": "NC1CCCCC1NCCNC1CCCCC1N (stereo unspecified)", "target-or-test-system": "NCI-H23", "label": "inactive"}
{"molecule": "O=c1cccccc1NCCCCCCCCCNc1cccccc1=O", "target-or-test-system": "NCI-H23", "label": "inactive"}

Called result for COC(=O)[C@H](CCSC)NC(=O)c1ccc(CNC(=O)/C=C/c2cccc(Oc3ccccc3)c2)cc1 inactive

Called result for Cc1cc2c(=O)cc(-c3ccncc3)oc2c(C(N)=O)c1C inactive

Called result for CC1=C(C(=O)O)N2C(=O)[C@@H](NC(=O)C(c3ccccc3)N3CSC(=S)N(C(C)C)C3)C2SC1 (stereo partly specified) inactive

Called result for CSC1=C(C)S/C(=C\c2ccc(/C=C3\SC(C)=C(SC)S3)cc2)S1 inactive

Called result for CCOC(=O)c1c(SCCN2CCCC2)n(-c2ccccc2)c(=S)n(-c2ccccc2)c1=O inactive

Called result for COC(=O)CC1c2ccccc2N2C(=O)Cc3c([nH]c4ccccc34)C12 (stereo unspecified) inactive
